Method Notes: Ratio of IC50 for CHO cells to IC50 for Plasmodium falciparum
Type: functional

# Line Notation, Ratio IC50
rows = [
    ("Clc1cccc(-[n+]2nc(-c3ccccc3)nn2-c2ccccc2)c1.[Cl-]", 7.5),
    ("[Cl-].c1ccc(-n2nc(C3CCCCC3)n[n+]2-c2ccccc2)cc1", 4),
    ("CC(C)c1nn(-c2ccccc2)[n+](-c2ccccc2)n1.[Br-]", 3.7),
    ("O=[N+]([O-])c1ccc(-[n+]2nc(-c3ccc(OCc4ccccc4)cc3)nn2-c2ccccc2)cc1.[Cl-]", 0.5),
    ("Clc1cccc(-c2nn(-c3ccc(OCc4ccccc4)cc3)[n+](-c3ccccc3)n2)c1.[Cl-]", 92.7),
    ("COc1cc(-c2nn(-c3ccccc3)[n+](-c3ccc([N+](=O)[O-])cc3)n2)cc(OC)c1OC(C)=O.[Cl-]", 2.6),
    ("[Cl-].c1ccc(-c2nn(-c3ccccc3)[n+](-c3ccccc3)n2)cc1", 236.7),
    ("Fc1ccc(-[n+]2nc(-c3ccc(OCc4ccccc4)cc3)nn2-c2ccccc2)cc1.[Cl-]", 34),
]
